Origin of measurements: the Human Domainome abundance scans (Beltran et al. 2025)

B1: Serine/threonine-protein kinase A-Raf, residues 21 to 89; numbered along this chain, P10398 (parent)
chain: VKVYLPNKQRTVVTVRDGMSVYDSLDKALKVRGLNQDCCVVYRLIKGRKTVTAWDTAIAPLDGEELIVE

Variants of: B1
assay-details: abundance fitness (aPCA) (normalised: wild type 0, dead -1); higher = more abundant; growth selection in yeast, the domain comes from the species named
condition-details: Homo sapiens
Give measured abundance fitness for each item. Keep answers brief.

Could you share which abundance fitness value was measured for VKVYLPNKQRTVVTVRDGMSVYDSLDKALKVRGLNQDCCVVYRLIKGRKTVTAWDDAIAPLDGEELIVE [T56D] ? -0.069

Could you share which abundance fitness value was measured for VKVYLPNKQRTVVTVRDGMSVNDSLDKALKVRGLNQDCCVVYRLIKGRKTVTAWDTAIAPLDGEELIVE [Y22N] ? -0.346

Could you share which abundance fitness value was measured for VKVYLPNKQRTVVTVRDGMSVYDSLDKALKVRGLNQDCCVVYRLIKGRKTVTAWDTAIIPLDGEELIVE [A59I] ? 0.131

Could you share which abundance fitness value was measured for VKVYLPNKQRTVVTVRDGMSVYDSLDKALKVRGLNQDCCVVYPLIKGRKTVTAWDTAIAPLDGEELIVE [R43P] ? -0.822
